testedTarget: human insulin receptor (HIR) (human, UniProt P06213 28-1382, limits assumed)
method: 125I-insulin competition, solubilised HIR
observedProperty: pKd
Worth noting: pKd values are minus log10 of concentrations stated in mol/L.

Below: 3 binders and their reported pKd.
>>> result("537 (recombinant dimer with tags at both ends; also called RP9-6aa-D8) peptide: MADYKDDDDKGSLDESFYDWFERQLGKKGGSGGSWLDQEWAWVQCEVYGRGCPSAAAGAPVPYPDPLEPRPG")
10.04
>>> result("539 (recombinant dimer with tags at both ends; also called D8-6aa-RP9) peptide: MADYKDDDDKWLDQEWAWVQCEVYGRGCPSGGSGGSGSLDESFYDWFERQLGKKAAAGAPVPYPDPLEPRPG")
9.28
>>> result("538 (recombinant dimer with tags at both ends; also called RP9-12aa-D8) peptide: MADYKDDDDKGSLDESFYDWFERQLGKKGGSGGSGGSGGSWLDQEWAWVQCEVYGRGCPSAAAGAPVPYPDPLEPRPG")
10.10

We now examine a further binder.
Request: For the binder shown here, 521 (recombinant dimer with tags at both ends (FLAG, E-Tag); also called RP9-6aa-RP9) peptide: MADYKDDDDKGSLDESFYDWFERQLGKKGGSGGSGSLDESFYDWFERQLGKKAAAGAPVPYPDPLEPRPG , give the reported pKd.
Response: 7.60
